# protocol-details: yeast display, Sf9 membrane polyspecificity reagent, FACS + sequencing; frameworks hold sequencing errors
metric-name: polyreactivity (PSR sort gate)

Field: example entries. Status: answers known.
sequence-content	polyreactivity (PSR sort gate)
QVQLVESGGGLVQAGGSLRLSCAASGSTFSVNPMGWYRQARVKERELVAAIDSGDSTYYADSVKGRFTISRDNAKNTVYLQMNSLKPEDTAVYYCATDVTFVYDLGYFQYDYWGQGTQVTVSS	low polyreactivity
QVQLVESGGGLVQAGGSIRLSCAASGSIFTINTMGWYRQAPGKERELVAAISKRGGSTYYADSVKGRFTISRDNAKNTVYLQKNSLKPEDTAVYYCAARQFYKYYYWGQGTQVTVSS	high polyreactivity
QVQLVESGGGLVQAGGSLRLSCAASGRIFQSYAMGWYRQAPGKERELVAGISTRGGNTYYADSVKGRFTISRDNAKNTVYLQMNSLKPEDTAVYYCAKRDYGRFASDYWGQGTQVTVSS	high polyreactivity
QVQLVESGGGLVQAGGSLRLSCAASGSIFSWYTMGWYRQAPGKERELVARITTSGGTSTYYADSVKGRFTISRDNAKNTVYLQMNSLKPEDTAVYYCAADSPTSLYEYWGQGTQVTVSS	high polyreactivity
QVQLVESGGGRVQAGGSLRLSCAASGITFDANAMGWDRQAPGKERELVARISSGGSTNYADSVKGRFTISRDNAKNTVYLQMNSLKPEDTAVYYCAKSYQYGFDYWGQGTQVNVSS	low polyreactivity

Moving on to another sequence below.
Request: Output polyreactivity (PSR sort gate) of QVQLVESGGGLVQAGGSLRLSCAASGRIFGAYAMGSYRQAPGKERELVAAIDIRGGKTYYADSVKGRFTISRDYSKNSVYLQMNSMKPEDTAVYYCAADTWYDAYNYWGQGTQVTVSS
Result: low polyreactivity

* * *

# protocol-details: yeast display, Sf9 membrane polyspecificity reagent, FACS + sequencing; frameworks hold sequencing errors
metric-name: polyreactivity (PSR sort gate)

Field: example entries. Status: answers known.
sequence-content	polyreactivity (PSR sort gate)
QVQLQERGGGLVQAGGSLRLSCAASCTIFRFRYMGGHRQAPGKERELVAGINGGTTTYYADSEIGRFTMSRDNAKNTLYLQMNSLKPDDTAVYNCAAGDSRLTYYDYWGQGTQVTVSS	low polyreactivity
QVHLVESGGGLVLAGGSLRLSCAASGIIFTYAMGWYRHAPGNERELVAAIDWRGGRTYYADSLKGRFTISRDNAKNTFYLQMNSLKPEDTAVYYCAPRLPGGTYYWGQGTQVTESS	high polyreactivity
QVQLVESGGGLVQAGGSLRLSCAASGFTFGGYAMGWYRQAPGKERELVAAISRSGGSTSYADSVKGRFTISRDNAKNTVYLQMNSLKPEDTAVYYCAAKFFRNTYSYGMDYWGLGTQVTVSS	high polyreactivity
EVQLVESGGGLVQAGGSLRLSCAASGRTIGFNGMAWYRQAPGKERELFAAITRSGGNTYADSVKGRFTISRDNAKNTVYLQMNSLNPEDSAVYYCATTYVGETLTGPGDYWGQGTQVTVSS	low polyreactivity

Moving on to another sequence below.
Request: Output polyreactivity (PSR sort gate) of QVQLVESGGGLVQAGGSLRLSCAASGIIFRRYAMGWYRQAPGKEREFVAAIRYTGGGTYYADSVKGRFTISRDNAKNTVYLQMNSLKPEDTAVYYCAARDRDTRNYYWGQGTQVTVSS
Result: high polyreactivity
